Data origin: ChEMBL document CHEMBL4765334

assay: Cytotoxicity against human TZM-GFP cells incubated for 72 hrs by XTT assay; format: cell-based; settings: TZM-GFP cells
Recorded measurements of CC50 at 72 h, one per entry

For orientation, consider the following solved cases.
Cc1[nH]c2ccccc2c1CC(=O)N[C@@H](Cc1ccccc1)C(=O)N(C)c1cccc(Cl)c1 | < 50 µM
CN(C(=O)[C@H](Cc1ccccc1)NC(=O)Cc1c[nH]c2ccccc12)c1cccc(F)c1 | 50 µM
Cc1[nH]c2ccccc2c1CC(=O)N[C@@H](Cc1ccccc1)C(=O)N1CCC[C@H]1C(=O)Nc1ccccc1 | > 50 µM

Lab note: next molecule to report on.
Reported CC50 at 72 h of CN(C(=O)[C@H](Cc1ccccc1)NC(=O)Cc1c[nH]c2ccccc12)c1ccccc1 : > 100 µM

----------
system: TZM; assay: Cytotoxicity against human TZM-GFP cells incubated for 72 hrs by XTT assay; type: cell-based; conditions: tzm, 72 h
Rule: measured CC50 below 70 µM gets true; anything equal to or greater than 70 µM gets false.

Solved cases below.
CCN(C(=O)[C@H](Cc1ccccc1)NC(=O)Cc1c(C)[nH]c2ccccc12)c1ccccc1 | false
Cc1[nH]c2ccccc2c1CC(=O)N[C@@H](Cc1ccccc1)C(=O)Nc1ccc(Cl)cc1 | false
CCn1cc(CC(=O)N[C@@H](Cc2ccccc2)C(=O)N(C)c2ccccc2)c2ccccc21 | true
COc1ccc(N(C)C(=O)[C@H](Cc2ccccc2)NC(=O)Cc2c(C)[nH]c3ccccc23)cc1 | false
Cc1ccc(N(C)C(=O)[C@H](Cc2ccccc2)NC(=O)Cc2c[nH]c3ccccc23)cc1 | true
Cc1cc(NC(=O)[C@H](Cc2ccccc2)NC(=O)Cc2c[nH]c3ccccc23)n[nH]1 | false
CN(C(=O)[C@H](Cc1ccccc1)NC(=O)Cc1c[nH]c2ccccc12)c1cccc(Cl)c1 | true

Please look at the following compound next.
Problem: For the compound CCn1c(C)c(CC(=O)N[C@@H](Cc2ccccc2)C(=O)N(C)c2ccccc2)c2ccccc21 , is CC50 under 70 µM?
true

----------
tested on: Human immunodeficiency virus 1; assay: Binding affinity to covalently-crosslinked hexameric HIV1 capsid protein A14C/E45C/W184A/M185A mutant expressed in Escherichia coli BL21(DE3)RIL assessed as change in melting temperature at 20 uM incubated for 30 mins by thermal shift dye based fluorescence analysis
measurement.name: ΔTm (°C)
A number alone suffices; assume °C.

For orientation, consider the following solved cases.
CN(C(=O)[C@H](Cc1ccccc1)NC(=O)Cc1c[nH]c2ccccc12)c1ccc(Br)cc1 | 8.3
Cc1ccc(N(C)C(=O)[C@H](Cc2ccccc2)NC(=O)Cc2c[nH]c3ccccc23)cc1 | 6.6
Cc1[nH]c2ccccc2c1CC(=O)N[C@@H](Cc1ccccc1)C(=O)N(C)c1cccc(C(F)(F)F)c1 | 5.4
Cc1[nH]c2ccccc2c1CC(=O)N[C@@H](Cc1ccccc1)C(=O)Nc1ccc(Cl)cc1 | 0
Cc1[nH]c2ccccc2c1CC(=O)N[C@@H](Cc1ccccc1)C(=O)NCc1cccc2[nH]ccc12 | 0
CCn1c(C)c(CC(=O)N[C@@H](Cc2ccccc2)C(=O)N(C)c2ccccc2)c2ccccc21 | 10.8

Value sought: ΔTm, system Human immunodeficiency virus 1, item CN(C(=O)[C@H](Cc1ccccc1)NC(=O)Cc1c[nH]c2ccccc12)c1ccccc1 . Result: 6.1

Value sought: ΔTm, system Human immunodeficiency virus 1, item Cc1[nH]c2ccccc2c1CC(=O)N[C@@H](Cc1cccc(Br)c1)C(=O)N(C)c1ccccc1 . Result: 3.4

Value sought: ΔTm, system Human immunodeficiency virus 1, item O=C(Cc1c[nH]c2ccccc12)N[C@@H](Cc1ccccc1)C(=O)Nc1cccnn1 . Result: 0.8

----------
Recorded measurements of half-life at 1 µM, one per entry
experiment: Metabolic stability at phase 1 in mouse liver microsomes assessed as half life at 1 uM by LC-MS/MS analysis; format: ADME, Microsome; details: liver microsomes
A number alone suffices; assume s.

For orientation, consider the following solved cases.
Cc1ccc(N(C)C(=O)[C@H](Cc2ccccc2)NC(=O)Cc2c(C)[nH]c3ccccc23)cc1 | 30
Cc1c(CC(=O)N[C@@H](Cc2ccccc2)C(=O)N(C)c2ccccc2)c2ccccc2n1C(C)C | 30

Lab note: next compound to report on.
Reported half-life at 1 µM of CN(C(=O)[C@H](Cc1ccccc1)NC(=O)Cc1c[nH]c2ccccc12)c1ccc(F)cc1 : 30

----------
tested on: Human immunodeficiency virus 1; assay: Antiviral activity against HIV1 NL4-3 infected in human TZM-GFP cells assessed as number of GFP positive cells at 20 uM incubated for 48 hrs by imaging reader; assay type: functional; details: Human immunodeficiency virus 1, NL4-3, TZM
measurement.name: inhibition at 20 µM (%)
A number alone suffices; assume %.

CN(C(=O)[C@H](Cc1ccccc1)NC(=O)Cc1c[nH]c2ccccc12)c1cccc(C(F)(F)F)c1 | 96

Reported inhibition at 20 µM of CN(C(=O)[C@H](Cc1ccccc1)NC(=O)CCc1c[nH]c2ccccc12)c1ccccc1 : 98

Reported inhibition at 20 µM of CN(C(=O)[C@H](Cc1ccccc1)NC(=O)Cc1c[nH]c2ccccc12)c1cccc(F)c1 : 97

Reported inhibition at 20 µM of CCN(C(=O)[C@H](Cc1ccccc1)NC(=O)Cc1c(C)n(C(C)C)c2ccccc12)c1ccccc1 : 99.7

Reported inhibition at 20 µM of CN(C(=O)[C@H](Cc1ccccc1)NC(=O)Cc1c[nH]c2ccccc12)c1cccc(Cl)c1 : 99.5

Reported inhibition at 20 µM of Cc1cccc(N(C)C(=O)[C@H](Cc2ccccc2)NC(=O)Cc2c[nH]c3ccccc23)c1 : 98

Reported inhibition at 20 µM of COc1cccc(N(C)C(=O)[C@H](Cc2ccccc2)NC(=O)Cc2c[nH]c3ccccc23)c1 : 97

Reported inhibition at 20 µM of Cc1[nH]c2ccccc2c1CC(=O)N[C@@H](Cc1cccc(Br)c1)C(=O)N(C)c1ccccc1 : 94

----------
test system: TZM; assay: Cytotoxicity against human TZM-GFP cells incubated for 72 hrs by XTT assay; type: cell-based; settings: tzm, 72 h
measurement.name: CC50 (µM)
A number alone suffices; assume µM.

Reported CC50 of CCN(C(=O)[C@H](Cc1ccccc1)NC(=O)Cc1cn(C(C)C)c2ccccc12)c1ccccc1 : 15

Reported CC50 of CCN(C(=O)[C@H](Cc1ccccc1)NC(=O)Cc1c[nH]c2ccccc12)c1ccccc1 : 70

Reported CC50 of CC(C)n1cc(CC(=O)N[C@@H](Cc2ccccc2)C(=O)N(C)c2cccc(Cl)c2)c2ccccc21 : 13

Reported CC50 of Cc1c(CC(=O)N[C@@H](Cc2ccccc2)C(=O)N(C)c2ccc(F)cc2)c2ccccc2n1C(C)C : 20

Reported CC50 of O=C(Cc1c[nH]c2ccccc12)N[C@@H](Cc1ccccc1)C(=O)Nc1nc2ccccc2[nH]1 : 44

----------
Recorded measurements of ΔTm, one per entry
test system: Human immunodeficiency virus 1; experiment: Binding affinity to covalently-crosslinked hexameric HIV1 capsid protein A14C/E45C/W184A/M185A mutant expressed in Escherichia coli BL21(DE3)RIL assessed as change in melting temperature at 20 uM incubated for 30 mins by thermal shift dye based fluorescence analysis
A number alone suffices; assume °C.

CCN(C(=O)[C@H](Cc1ccccc1)NC(=O)Cc1cn(C(C)C)c2ccccc12)c1ccccc1 | 5.7
CCN(C(=O)[C@H](Cc1ccccc1)NC(=O)Cc1c(C)n(C(C)C)c2ccccc12)c1ccccc1 | 7
Cc1ccc(N(C)C(=O)[C@H](Cc2ccccc2)NC(=O)Cc2c(C)n(C(C)C)c3ccccc23)cc1 | 8.4
CCN(C(=O)[C@H](Cc1ccccc1)NC(=O)Cc1c[nH]c2ccccc12)c1ccccc1 | 6.4
O=C(Cc1c[nH]c2ccccc12)N[C@@H](Cc1ccccc1)C(=O)Nc1ccc2ncsc2c1 | 0
CN(C(=O)[C@H](Cc1ccccc1)NC(=O)Cc1c[nH]c2ccccc12)c1ccc(Cl)cc1 | 4.6

Reported ΔTm of Cc1c(CC(=O)N[C@@H](Cc2ccccc2)C(=O)N(C)c2cccc(F)c2)c2ccccc2n1C(C)C : 7

Reported ΔTm of Cc1cccc(N(C)C(=O)[C@H](Cc2ccccc2)NC(=O)Cc2c[nH]c3ccccc23)c1 : 1.6

Reported ΔTm of Cc1[nH]c2ccccc2c1CC(=O)N[C@@H](Cc1ccccc1)C(=O)N(C)c1cccc(F)c1 : 6.2

----------
Recorded measurements of t1/2, one per entry
experiment: Metabolic stability at phase 1 in mouse liver microsomes assessed as half life at 1 uM by LC-MS/MS analysis; type: ADME, Microsome; details: microsomes, 1 µM
A number alone suffices; assume s.

COc1ccc(N(C)C(=O)[C@H](Cc2ccccc2)NC(=O)Cc2c(C)[nH]c3ccccc23)cc1 | 42
CN(C(=O)[C@H](Cc1ccccc1)NC(=O)Cc1c[nH]c2ccccc12)c1ccc(Cl)nc1 | 42
Cc1ccc(N(C)C(=O)[C@H](Cc2ccccc2)NC(=O)Cc2c[nH]c3ccccc23)cc1 | 36

Reported t1/2 of COc1ccc(N(C)C(=O)[C@H](Cc2ccccc2)NC(=O)Cc2c[nH]c3ccccc23)cc1 : 36

Reported t1/2 of CN(C(=O)[C@H](Cc1ccccc1)NC(=O)Cc1c[nH]c2ccccc12)c1cc(F)cc(F)c1 : 36

Reported t1/2 of CN(C(=O)[C@H](Cc1ccccc1)NC(=O)Cc1c[nH]c2ccccc12)c1ccc(Br)cc1 : 42
